Data credit: patent US4725683A

# System: Barley
# Assay procedure: Postemergent activity
# Assay type: in vivo
# Setup conditions: 62.5 ppm
Provide the reported % Control of each item.
Numbers only; they are read as %.

Record COC(=O)[C@@H](C)Oc1ccc(Oc2ccc(Br)cc2F)cc1 [4-Bromo-(R-Enantiomer)] . Reported % Control: 95

Briefly, % Control measured for COC(=O)C(C)Oc1ccc(Oc2ccc(Cl)cc2F)cc1 (racemic) : 0

So for COC(=O)C(C)Oc1ccc(Oc2ccc(Br)cc2F)cc1 (racemic) , the logged % Control turned out to be 10

For COC(=O)[C@@H](C)Oc1ccc(Oc2ccc(Cl)cc2F)cc1 [4-Chloro-(R-Enantiomer)] the molecule record lists % Control as 0
